Origin of measurements: patent US20060257322A1

Type: in vivo, hairless mice
Conditions: Day 11; 11 μmol of epothilone/kg of body weight i.v. (formulations: plus 100 μmol of Gd/kg); day 0 (about 30-35 g) normalized to 1
Items are presented alongside their recorded Relative animal weights.

Substance Smiles: C#CC[C@H]1C(=O)C(C)(C)[C@@H](O)CC(=O)O[C@H](/C(F)=C/c2coc(C)n2)C/C=C(/C)CCC[C@H](C)[C@@H]1O
Relative animal weights: 0.97
//
Substance Smiles: C#CC[C@H]1C(=O)C(C)(C)[C@@H](O)CC(=O)O[C@H](/C(F)=C/c2csc(C)n2)C/C=C(/C)CCC[C@H](C)[C@@H]1O
Relative animal weights: 0.96
//
Substance Smiles: C#CCC[C@H]1C(=O)C(C)(C)[C@@H](O)CC(=O)O[C@H](/C(C)=C/c2ccccn2)C/C=C(/C)CCC[C@H](C)[C@@H]1O
Relative animal weights: 0.97
//
Substance Smiles: CC[C@H]1C(=O)C(C)(C)[C@@H](O)CC(=O)O[C@H](/C(F)=C/c2ccccn2)C/C=C(/C)CCC[C@H](C)[C@@H]1O
Relative animal weights: 0.97
//
Substance Smiles: C=CC[C@H]1C(=O)C(C)(C)[C@@H](O)CC(=O)O[C@H](c2ccc3sc(C)nc3c2)C[C@@H]2O[C@]2(C)CCC[C@H](C)[C@@H]1O
Relative animal weights: 0.97
